Target: Solute carrier organic anion transporter family member 1B3 (Homo sapiens, UniProt Q9NPD5)
Sequence (Q9NPD5 whole entry): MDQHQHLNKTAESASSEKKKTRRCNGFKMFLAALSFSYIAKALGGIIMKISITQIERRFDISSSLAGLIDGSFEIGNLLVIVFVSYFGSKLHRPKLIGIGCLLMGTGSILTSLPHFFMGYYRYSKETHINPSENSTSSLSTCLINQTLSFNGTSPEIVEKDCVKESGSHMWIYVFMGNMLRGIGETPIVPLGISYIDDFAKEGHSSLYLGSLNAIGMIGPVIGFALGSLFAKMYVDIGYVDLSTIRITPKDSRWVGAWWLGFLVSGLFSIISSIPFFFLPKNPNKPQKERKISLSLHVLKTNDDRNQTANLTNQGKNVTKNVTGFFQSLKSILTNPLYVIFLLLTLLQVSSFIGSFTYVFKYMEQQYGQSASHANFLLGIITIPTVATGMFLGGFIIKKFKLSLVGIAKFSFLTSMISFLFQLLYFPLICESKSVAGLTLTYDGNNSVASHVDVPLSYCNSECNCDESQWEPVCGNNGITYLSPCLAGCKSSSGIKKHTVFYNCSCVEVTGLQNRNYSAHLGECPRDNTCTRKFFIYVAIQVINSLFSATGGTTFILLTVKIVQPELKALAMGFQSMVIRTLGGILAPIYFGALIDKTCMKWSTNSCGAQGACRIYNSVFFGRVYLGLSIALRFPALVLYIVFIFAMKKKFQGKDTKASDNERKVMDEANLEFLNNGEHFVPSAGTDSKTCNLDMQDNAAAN
Assay: Inhibition of OATP1B3 (unknown origin) transfected in human A-431 cells assessed as inhibition of DHPDS uptake preincubated for 5 mins followed by DHPDS addition and measured after 10 mins by fluorescence based analysis
READOUT: pIC50
# log scale: pIC50 equals minus log10 of the concentration in mol/L

COc1cccc(NC(=O)Cn2nc(C(=O)Nc3cccc(OC)c3)c3ccccc32)c1: 5.64
O=C(Cn1nc(C(=O)Nc2cccnc2)c2ccccc21)Nc1ccc(Cl)cc1: 5.74
COc1cccc(NC(=O)c2nn(CC(=O)Nc3ccccc3OC)c3ccccc23)c1: 5.74

--- query ---
Per the record, O=C(Cn1nc(C(=O)Nc2ccccn2)c2ccccc21)Nc1cc(Cl)ccc1Cl has pIC50 of 4.85
